# system: human GLP-1 receptor (GLP-1R) (human, UniProt P43220 24-463)
# method-notes: cell-based or functional assay
*1 amine or outer side, *2 acyl side, *3 side chain or, on linkers, in order; H or OH if unused. Primed or numbered codes have the meaning given here. Where no end group is shown, it is not given here. Side-chain parts run from the residue outwards. [ ]: non-standard residue; d: D form. The star is where a group is joined. PEG4′ = 4 PEG units (K(PEGxpalm): Lys with x PEG units and palmitoyl at epsilon N, C-terminal (PEG)4); γGlu = O=C(O)[C@H](CCC(=O)[*:2])N[*:1]; Palmitoyl = CCCCCCCCCCCCCCCC(=O)*
property-name: cAMP activity, GLP1 EC50 nM (nM)

// known answers, use as guide
[[record]]
binder = "HGQGTFTSDYSKYLDSK([γGlu-Palmitoyl])RAQDFVEWLV[PEG4′] [g694]"
property_name = "cAMP activity, GLP1 EC50 nM"
data_value = 0.07

[[record]]
binder = "HSQGTFTSDYSKYLDSXRAQDFVQWLV (not fully specified; K(PEG4-palm) at 17; C-terminal PEG6) [g438]"
property_name = "cAMP activity, GLP1 EC50 nM"
data_value = 0.005

[[record]]
binder = "HGQGTFTSDYSKYLDSXRAQDFVQWLV (K(gE-palm) at 17; C-terminal PEG6) [g692]"
property_name = "cAMP activity, GLP1 EC50 nM"
data_value = 0.06

[[record]]
binder = "HSQGTFTSDYSKYLDK([γGlu-Palmitoyl])RRAQDFVQWEV[PEG4′] [g496]"
property_name = "cAMP activity, GLP1 EC50 nM"
data_value = 8


[a] HSEGTFTSDYSKYK([γGlu-Palmitoyl])DSRRAQDFVQWLV[PEG4′] [g515]
[b] HSQGTFTSDYSEYLDSK([γGlu-Palmitoyl])RARDFVAWLV[PEG4′] [g784]
Lab log: flag the item ( a or b ) with the smaller cAMP activity, GLP1 EC50 nM figure. Return value: the label identifying the chosen record. a
(a: 0.1 nM, b: 0.3 nM)
